ASSAY NAME: Plasma toxicokinetics after single i.v. bolus
Assay type: in vivo, Sprague-Dawley rats
CONDITION CONTEXT: male, Sprague-Dawley, rat, plasma, iv, 1 mg/kg, anatabine 1.0 mg/kg single i.v., male rats; read-out: t1/2 (converted)
MEASUREMENT NAME: half-life
State the value, then name its unit.

half-life for C1=CCC(c2cccnc2)NC1 (racemic) [Anatabine, 1,2,3,6-tetrahydro-[2,3′]bipyridinyl] is 1.44 h

====

ASSAY NAME: Concentration in brain extracts after single i.v. bolus
Type: in vivo, Sprague-Dawley rats
CONDITION CONTEXT: male, Sprague-Dawley, rat, brain, intravenous, 1 mg/kg, Anatabine 1.0 mg/kg; male; 24 hr; read-out: Avg. Conc. rat brain
MEASUREMENT NAME: concentration at 24 h (ng/g)
Answer in ng/g, number only, no unit symbol.

concentration at 24 h for C1=CCC(c2cccnc2)NC1 (racemic) [Anatabine, 1,2,3,6-tetrahydro-[2,3′]bipyridinyl] is 2.5
